# measured on: T1, soluble Hendra virus G glycoprotein (sG) (Hendra virus, UniProt O89343 71-604)
# T1 sequence: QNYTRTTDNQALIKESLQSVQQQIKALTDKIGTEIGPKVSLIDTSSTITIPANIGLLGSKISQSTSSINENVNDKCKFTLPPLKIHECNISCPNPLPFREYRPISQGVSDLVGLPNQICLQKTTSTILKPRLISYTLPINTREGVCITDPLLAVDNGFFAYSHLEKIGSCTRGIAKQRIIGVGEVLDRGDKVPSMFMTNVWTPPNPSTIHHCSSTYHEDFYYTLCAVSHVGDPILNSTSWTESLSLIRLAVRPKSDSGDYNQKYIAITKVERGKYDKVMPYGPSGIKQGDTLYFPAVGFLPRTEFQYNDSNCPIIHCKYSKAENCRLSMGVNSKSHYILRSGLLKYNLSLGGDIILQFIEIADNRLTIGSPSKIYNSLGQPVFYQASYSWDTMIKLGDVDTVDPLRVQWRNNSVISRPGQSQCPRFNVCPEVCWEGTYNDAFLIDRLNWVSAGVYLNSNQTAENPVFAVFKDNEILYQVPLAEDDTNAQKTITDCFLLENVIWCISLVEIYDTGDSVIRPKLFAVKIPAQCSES
# measurement description: ELISA, purified soluble Fab on coated sG
property label: A450 (A450)
One number for each entry, in A450.

Observe how each entry below is paired with its result.
stdin: Param item = Fab m108 (Fab, V domains shown) VH: EVQLVESGGGLVKPGGSLRLSCAASGFTFSDYYMSWIRQAPGKGLEWVSYISSSGSTIYYADSVKGRFTISRDNAKNSLYLQMNSLRAEDTAVYYCARVGGAFDIWGQGTMVTVSS VL: NFMLTQPHSVSGSPGKTVTISCTRSSGSIASNYVQWYRQSPGSAPTTVIYEGYQRPSGVPDRFSGSIDSSSNSASLTISGLETEDEADYYCQSYDATNHQVVFGGGTKLTVL ; retrieve measured A450.
stdout: 0.5

stdin: Thanks! And Fab m101 (Fab, V domains shown) VH: QVQLVQSGAEVKKPGASVKVSCKASGGTFSSYAISWVRQAPGQGLEWMGGIIPIFGTANYAQKFQGRVTITADESTSTAYMELSSLRSGDTAVYYCARDPGGYSYGPYYYYYGMDVWGQGTTVTVSS VL: DIQMTQSPSSVSASVGDRVTITCRASQGIGPWLAWYQQKPGKAPKFLIYRASTLQSGVPSRFSGSGSGTDFTLTISSLQPEDFATYYCQQAHSFPFTFGPGTKVDIKR ?
stdout: 1

stdin: Subsequent entry: Fab m111 (Fab, V domains shown) VH: QVQLVQSGAEVKKPGATVKISCKVSGYTFTDYYMHWVQQAPGKGLEWMGLVDPEDGETIYAEKFQGRVTITADTSTDTAYMELSSLRSEDTAVYYCATEGADYWGQGTLVTVSS VL: DVVMTQSPLSLPVALGQPASISCRSSQSLVHSDGNTYLNWFQQRPGQSPRRLLYKVSNRESGVPDRFSGSGSGSDFTLKISRVEAEDVGIYYCMQGTHWPPITFGQGTRLEIKR
stdout: 0

stdin: Proceed to Fab m110 (Fab, V domains shown) VH: EVQLVQSGGGLVQPGRSLRLSCAASGFTFDDYAMHWVRQAPGKGLEWVSAISGSGGSTYYADSVKGRFTISRDNSKNTLYLQMNSLRAEDTAVYYCASEGLPETDDAFDIWGQGTMVTVSS VL: DVVMTQSPLSLPVTPGEPASISCRSSQSLLYSDGYNYLDWYLQKPGQSPQLLIYLGSRRASGVPDRFSGSGSGTDFTLKINTVEAEDVGVYYCMQGVEIPFTFGPGTKVEIKR
stdout: 0

stdin: Repeat with Fab m112 (Fab, V domains shown) VH: QVQLVQSGAEVKKPGATVKISCKVSGYTFTDYYMHWVQQAPGKGLEWMGLVDPEDGETIYAQKFQGRVTITADTSTNTAYMELSSLRSEDTAVYYCATDGADYWDQGTLGTVST VL: QSVLTQPPSVSGAPGQTVTISCTGSSSNIGGDSDVHWYQQLPGSAPKLLIYGNRNRPSGVPDRFSGSRSGTSASLAVIGVQADDEADYYCQCYDSSLNGYVFGPGTKVIVL
stdout: 0.4

stdin: Note, next up: Fab m116 (Fab, V domains shown) VH: EVQLVQSGAEVKKPGSSVKVSCKASGGAFSSYAISWVRQAPGQGLEWMGGIIPIFGTANYAQKFQGRVTITADESTSTAYMELSSLRSEDTAVYYCARDSAGLGAWGQGTLVAVSS VL: DIQMTQSPSSLSASVGDRVTITCRASQGISSALAWYQQKPGKAPKLLIYDASSLESGVPSRFSGSGSGTDFTLTISSLQPEDFATYYCQQFNSYPLTFGQGTRLEIKR
stdout: 0.3

Record A450 per entry; entries follow.
1. Fab m113 (Fab, V domains shown) VH: QVQLQQSGAEVKKPGSSVKVSCKASGGTFSSYAISWVRQAPGQGLEWMGWTNPNSGGTNYAQKLQGRVTMTTDTSTSTAYMELRSLRSDDTAVYYCANYKLQSDAFDIWGQGTMVTVSS VL: DIQMTQSPSSLSASVGDRVTITCRASQDIGNFLVWFQQKPGKAPKSLIYAASRLQSGVPSRFSGSGSGTDFTLTISSLQPEDFATYYCQHYKSYPLTFGGGTKVEIKR
2. Fab m117 (Fab, V domains shown) VH: QITLKESGPTLVKPTQTLTLTCTFSGFSLSTSGVGVGWIRQPPGKALEWLALIYWDDDKRYSPSLKSRLTITKDTSKNQVVLTMTNMDPVDTATYYCAHRESGPEFFQHWGQGTLVTVSS VL: DVVMTQSPLSLPVTLGQPASISCNSSQSLVYSNGITYLNWFHQRPGQSPRRLIYQVSNWDSEVPDRFSGSGSATDFTLKISRVEADDVGIYYCMQGTHWPPTFGQGTRLEIKR
3. Fab m109 (Fab, V domains shown) VH: QMQLQQWGAGLLKPSETLSLTCAVYGGSFSGYYWSWIRQPPGKGLEWIGEINHSGSTNYNPSLKSRVTISVDTSKNQFSLKLSSVTAADTAVYYCARGWFRDWYFDLWGRGTLVTVSS VL: DIQMTQSPSSLSASVGDRVTITCRASQDIRNDLGWYQQRPGKAPKLLIYAASSLQSGVPSRFSGSGSGTDFTLTISSLQPEDSATYFCLQDYQYPWTFGQGTKVEIKR
4. Fab m115 (Fab, V domains shown) VH: QVQLQQSGAEVKKPGSSVKVSCKASGGTFRSYAISWVRQAPGQGLEWMGGIIPIFGTANYAQKFQGRVTITADESTSTAYMELSSLRSEDTAVYYCARGSQSYDHYYYYGMDVWGQGTTVTVSS VL: QSALTQPASVSGSPGQSITISCTGTSSDVGGYNYVSWYQQHPGKAPKLMIFDVSNRPSGVSNRLSGSKSGNTASLTISGLQAEDEADYYCSSYTSNTVVFGGGTKLTVL

stdout:
0.1
0
0
0.4
